Listing of recorded RFU@10 μM by entry.
- target-system: human 5-HT2A (h5-HT2A) receptor (Homo sapiens)
- Construct: expressed in transfected cells; cultured under G418 and hygromycin B selection
- Sequence (P28223 whole entry): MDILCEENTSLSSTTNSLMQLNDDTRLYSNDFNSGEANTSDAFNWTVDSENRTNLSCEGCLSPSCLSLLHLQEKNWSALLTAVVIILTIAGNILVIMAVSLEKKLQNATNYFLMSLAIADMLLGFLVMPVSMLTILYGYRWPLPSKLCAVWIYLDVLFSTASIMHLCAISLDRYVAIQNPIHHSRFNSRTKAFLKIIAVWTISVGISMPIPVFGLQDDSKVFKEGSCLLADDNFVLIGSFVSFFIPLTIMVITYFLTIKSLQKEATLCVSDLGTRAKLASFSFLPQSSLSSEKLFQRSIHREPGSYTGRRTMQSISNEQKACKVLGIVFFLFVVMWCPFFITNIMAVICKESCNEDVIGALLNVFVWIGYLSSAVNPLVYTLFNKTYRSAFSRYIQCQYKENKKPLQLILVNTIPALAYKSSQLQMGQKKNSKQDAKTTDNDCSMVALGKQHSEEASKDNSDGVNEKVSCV
- protocol-description: FLIPR assay, human 5-HT2A receptor under agonist mode
- Format: cell-based
- setup-conditions: 5-HT2A (FLIPR), 10 μM, RFU=Fmax−Fmin
# answer = number (no unit)

compound: CN(C)CCc1c[nH]c2ccccc12 [DMT, N,N-dimethyltryptamine, reference compound]
readout-name: RFU@10 μM
reported-measurement: 381

compound: CN(C)CCC1CNc2ccccc21 (stereo not drawn)
readout-name: RFU@10 μM
reported-measurement: 544

compound: COc1ccc2c(c1)C(CCN(C)C)CN2C (stereo not drawn)
readout-name: RFU@10 μM
reported-measurement: 1014

compound: [2H]C([2H])([2H])Oc1ccc2c(c1)C(CCN(C)C)CN2 (stereo not drawn)
readout-name: RFU@10 μM
reported-measurement: 980

compound: COc1cc2c(cc1OC)C(CCN(C)C)CN2 (stereo not drawn)
readout-name: RFU@10 μM
reported-measurement: 286

Exercise: # get_value(readout='RFU@10 μM', item= CN(C)CCC1CNc2ccc(F)cc21 (stereo not drawn) )
Solution: 622

---

- protocol-description: Liver microsomes stability, rat
- setup-conditions: rat, liver microsomes
Recorded measurements of Predicted hepatic CL, one per entry

compound: CN(C)CCC1CNc2ccccc21 (centres unmarked) [II-2]
Predicted hepatic CL: 39.25 mL/min/kg
--
compound: O=C(O)Cc1ccccc1Nc1c(Cl)cccc1Cl [Diclofenac]
Predicted hepatic CL: 41.66 mL/min/kg
--
compound: [2H]C([2H])([2H])Oc1ccc2c(c1)C(CCN(C)C)CN2 (centres unmarked) [Compound I-11]
Predicted hepatic CL: 41.20 mL/min/kg
--
compound: CN(C)CCC1CNc2ccc(F)cc21 (centres unmarked) [Compound I-2]
Predicted hepatic CL: 43.15 mL/min/kg

Consider the record given below.
Exercise: GET /values?readout=Predicted hepatic CL&item= COc1ccc2c(c1)C(CCN(C)C)CN2 (centres unmarked) [II-1]
Solution: 41.56 mL/min/kg

---

Remaining Percentage overview
- protocol-description: Liver microsomes stability, human
- setup-conditions: human, Without NADPH, 30 min
Value expressed in %; do not type the unit.

Solved entries:
compound: COc1ccc2c(c1)C(CCN(C)C)CN2 (centres unmarked) [II-1]
Remaining Percentage / %: 89.91
--
compound: O=C(O)Cc1ccccc1Nc1c(Cl)cccc1Cl [Diclofenac]
Remaining Percentage / %: 91.86
--
compound: CN(C)CCC1CNc2ccccc21 (centres unmarked) [II-2]
Remaining Percentage / %: 100.69
--
compound: [2H]C([2H])([2H])Oc1ccc2c(c1)C(CCN(C)C)CN2 (centres unmarked) [Compound I-11]
Remaining Percentage / %: 97.58

Let us examine a further case.
Exercise: Fill in the blank: the reported Remaining Percentage of CN(C)CCC1CNc2ccc(F)cc21 (centres unmarked) [Compound I-2] is ____.
Solution: 115.22

---

Measured CLint scaled at 2 μM accompanies every entry in the list below.
- protocol-description: Liver microsomes stability, mouse
- setup-conditions: male, mouse, microsomes
Unit mL/min/kg implied. Number only.

Past entries and their recorded results:
molecule: [2H]C([2H])([2H])Oc1ccc2c(c1)C(CCN(C)C)CN2 (stereo not shown)
unit-of-measure: mL/min/kg
CLint scaled at 2 μM: 334

molecule: CN(C)CCC1CNc2ccccc21 (stereo not shown)
unit-of-measure: mL/min/kg
CLint scaled at 2 μM: 165

molecule: COc1ccc2c(c1)C(CCN(C)C)CN2 (stereo not shown)
unit-of-measure: mL/min/kg
CLint scaled at 2 μM: 368

Exercise: Request the reported CLint scaled at 2 μM associated with CN(C)CCC1CNc2ccc(F)cc21 (stereo not shown)
Solution: 163
